Test system: methicillin-resistant Staphylococcus aureus ATCC 43300, CCM 4750 (MRSA)
protocol-details: Antibacterial microdilution broth method, MRSA
Type: cell-based
assay-context: Staphylococcus aureus, 48 h incubation, read-out: MIC MRSA 48 h
Examples of compounds with documented MIC follow.

Known MIC results, listed for orientation:
>  <compound>
O=C(O)c1ccc(NCc2ccccc2O)cc1 [1u, 4-[(2-Hydroxybenzyl)amino]benzoic acid]

>  <tested-on>
methicillin-resistant Staphylococcus aureus ATCC 43300, CCM 4750 (MRSA)

>  <MIC>
> 500 µM

$$$$
>  <compound>
O=C(O)c1ccc(N=Cc2cc(I)ccc2O)cc1

>  <tested-on>
methicillin-resistant Staphylococcus aureus ATCC 43300, CCM 4750 (MRSA)

>  <MIC>
250 µM

$$$$
>  <compound>
O=C(O)c1ccc(N=Cc2cc(Br)ccc2O)cc1

>  <tested-on>
methicillin-resistant Staphylococcus aureus ATCC 43300, CCM 4750 (MRSA)

>  <MIC>
> 250 µM

$$$$
>  <compound>
O=C(O)c1ccc(N=Cc2ccccc2O)cc1

>  <tested-on>
methicillin-resistant Staphylococcus aureus ATCC 43300, CCM 4750 (MRSA)

>  <MIC>
> 500 µM

$$$$

Now let's try a different one.
-- ask If you can, please state the reported MIC value of `Nc1ccc(C(=O)O)cc1` .
-- reply > 500 µM
